assay overview: Thermodynamic solubility (Cyprotex)
Format: physicochemical
applied conditions: pH 7.4, saline or isotonic, thermodynamic from solid, pH7.4, potassium salt
Structures can show the parent of a compound that is named as a salt.

| molecule | solubility, µg/mL |
| --- | --- |
| CCC(CC)n1c(Cc2cccs2)nc2cc(C(=O)N[C@H](CC(=O)O)CC(C)C)ccc21 [CMF-019 (potassium salt)] | 2090 |

----------
assay system: UniProt Q9WV08
Sequence (Q9WV08 1-377): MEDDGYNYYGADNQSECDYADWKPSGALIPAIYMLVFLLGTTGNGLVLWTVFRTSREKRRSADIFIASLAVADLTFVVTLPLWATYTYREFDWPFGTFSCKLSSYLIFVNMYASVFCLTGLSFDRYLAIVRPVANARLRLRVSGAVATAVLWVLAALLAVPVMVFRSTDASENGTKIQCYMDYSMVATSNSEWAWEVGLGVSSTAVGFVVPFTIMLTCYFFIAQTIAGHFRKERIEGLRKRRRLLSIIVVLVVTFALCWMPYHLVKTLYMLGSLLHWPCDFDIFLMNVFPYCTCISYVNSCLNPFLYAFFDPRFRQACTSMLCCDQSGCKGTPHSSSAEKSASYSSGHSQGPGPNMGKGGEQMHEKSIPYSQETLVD
assay overview: Competition radioligand binding, mouse whole heart homogenate
test readout: Ki (nM)

| compound smiles | assay system | test readout | numeric result |
| --- | --- | --- | --- |
| CCC(CC)n1c(Cc2cccs2)nc2cc(C(=O)N[C@H](CC(=O)O)CC(C)C)ccc21 | UniProt Q9WV08 | Ki | 1.95 |

// data source = paper PMC5012889
